So I've got a bunch of molecules here, and I need their TGI values.
Tested on: SK-MEL-5 melanoma
Test: NCI tumour cell line growth inhibition, 48 h

Illustrative cases are given below, each with its answer.
[[record]]
molecule = "C#Cc1cccc(NC(=O)/C=C\\C(=O)O)c1"
system_name = "SK-MEL-5 melanoma"
readout_name = "TGI"
result = "> 100 µM"

[[record]]
molecule = "Clc1[nH]nc2ccccc12"
system_name = "SK-MEL-5 melanoma"
readout_name = "TGI"
result = "> 100 µM"

[[record]]
molecule = "O=C1C=CC2(O)OCC3C=C4O[C@@H]5OC6(CCCCC6)O[C@@H]5C4[C@@H]2[C@@H]13 (stereo not given in full)"
system_name = "SK-MEL-5 melanoma"
readout_name = "TGI"
result = "> 100 µM"

[[record]]
molecule = "OCC1OC(OC2(CO)OC(CO)C(O)C2O)C(O)C(O)C1O (stereo not given)"
system_name = "SK-MEL-5 melanoma"
readout_name = "TGI"
result = "> 100 µM"


Next molecule, TGI to be filled in.
Item: C/C(=C/CCC(C)[C@@H]1CC[C@]2(C)C3=C(CC[C@@]12C)[C@@]1(C)CCC(=O)C(C)(C)[C@@H]1CC3)C(=O)O (stereo not given in full) | TGI: 2.44 µM

###

So I've got a bunch of compounds here, and I need their TGI values.
System: CAKI-1 renal
Experiment: NCI tumour cell line growth inhibition, 48 h

[[record]]
compound = "COc1cc2c(c3c1c(=O)c1ccccc1n3C)C=C([N+](=O)[O-])C(C)(C)O2"
system_name = "CAKI-1 renal"
readout_name = "TGI"
result = "> 100 µM"

[[record]]
compound = "OCc1ccc(-c2ccc(-c3ccc(CO)o3)o2)o1"
system_name = "CAKI-1 renal"
readout_name = "TGI"
result = "> 100 µM"

[[record]]
compound = "COc1cc(C=O)cc(C=Nc2ccc(Br)cc2)c1O"
system_name = "CAKI-1 renal"
readout_name = "TGI"
result = "42 µM"

[[record]]
compound = "CN(Cc1cnc2nc(N)nc(N)c2n1)c1ccc(C(=O)NC(CCC(=O)O)C(=O)O)c2ccccc12 (stereo not drawn)"
system_name = "CAKI-1 renal"
readout_name = "TGI"
result = "> 1000 µM"

[[record]]
compound = "CC(C)(C)C(=O)c1c(O)c2ccccc2c2ccccc2c1=O"
system_name = "CAKI-1 renal"
readout_name = "TGI"
result = "> 100 µM"


Would you mind listing TGI for each of the following compounds?
1. NCCCNc1nc2ccccc2c2c(=O)c3cc(Cl)ccc3sc12
2. COc1c(OC2OC(CO)C(O)C(O)C2O)cc2c(c1OC)-c1ccc(OC)c(=O)cc1C(NC(C)=O)CC2 (stereo not drawn)

OUT:
["2.86 µM", "> 100 µM"]

Would you mind listing TGI for each of the following compounds?
1. COC(=O)C(Cc1ccccc1)NC(=O)C(CNC(=O)OCc1ccccc1)C(=O)OCc1ccccc1 (stereo not drawn)
2. O=C1C=CC2(O)OCC3C=C4O[C@@H]5OC6(CCCCC6)O[C@@H]5C4[C@@H]2[C@@H]13 (stereo partly drawn)
3. [C-]#[O+].[Cl][Sn]([Cl])[Cl].[Cl][Sn]([Cl])[Cl].[Pt].c1cnc2c(c1)ccc1cccnc12
4. CCCCCCCCCCCCCCCC(=O)OCC1OC(n2cc(F)c(=O)[nH]c2=O)C(NC(=O)OCc2ccccc2)C(O)C1O (stereo not drawn)
5. CC(C)c1ccc(Cc2ccc(C(C)C)c(NC(=O)C(=O)Cc3cnc4ccccc4n3)c2C(C)C)c(C(C)C)c1NC(=O)C(=O)Cc1cnc2ccccc2n1
6. CC1(C)N=C(/C(Cl)=[N+](/[O-])C(=O)c2ccc(Cl)cc2)C(C)(C)N1O

OUT:
> 100 µM
48.9 µM
> 100 µM
33.8 µM
> 100 µM
42.7 µM

Would you mind listing TGI for each of the following compounds?
1. CC1CC(c2ccccc2)=Nc2ccccc2S1 (stereo not drawn)
2. CC[C@]1(c2ccc3c(c2)OCO3)C=[N+]([O-])O[C@H](OC2CCCC2(c2ccccc2)c2ccccc2)[C@@H]1OC(C)=O (stereo partly drawn)
3. NC1=NC(c2ccccc2Cl)c2c(n[nH]c2N)N1 (stereo not drawn)
4. CCN1C(=O)N(CC)C2C1NC(=S)N2/N=C/C=C/c1ccccc1 (stereo not drawn)
5. Cc1ccc(S(=O)(=O)N/N=c2/sc3ccccc3n2C)cc1
6. O=C1Nc2ccc(-c3cccnc3)cc2/C1=C/c1cc(Br)c(O)c(Br)c1

OUT:
["> 100 µM", "> 100 µM", "> 100 µM", "> 100 µM", "> 100 µM", "> 23.7 µM"]
